System: CP250
Experiment: qHTS profiling for inhibitors of Plasmodium falciparum proliferation (AID 504749); also: nearly all actives have a fitted effect of over 60% in size
Settings: P. falciparum in erythrocytes, SYBR Green DNA, 72 h; series mostly up to 28.7 µM
Protocol: NIH National Institute of Allergy and Infectious Diseases [NIAID] NIH Chemical Genomics Center [NCGC] […] Because mature erythrocytes lack DNA, only Plasmodium-derived DNA is detected. NCGC Assay Protocol Summary: The SYBR Green viability assay was adapted from a method described previously (Plouffe et al., 2008). […] The following morning, fluorescence intensity at 485(14) nm excitation and 535(25) nm emission wavelengths was measured on an EnVision (Perkin Elmer) plate reader. […]
Records with an inconclusive call do not appear. The source made the active and inactive calls. Calls follow the shape of the dose curve; as a rule, active = well fitted inhibition curve with a large enough effect; inconclusive = small, poorly fitted or top-dose-only effect; inactive = flat fitted curve, though single readings scatter.
// classify into Yes for active, No for inactive

// below: answered compounds
{"columns": ["Compound", "Discrete label"],
 "data": [
  ["CNC1CCc2cc(OC)c(OC)c(OC)c2-c2ccc(OC)c(=O)cc21 (stereo unspecified)", "No"],
  ["CC1CCC(O)C/C1=C\\C=C1/CCCC2(C)C1CCC2C(C)/C=C/C(C)C(C)C (stereo unspecified)", "No"],
  ["O=C(O)C(O)c1ccccc1 (stereo unspecified)", "No"],
  ["CC(=O)NC1[C@H](O)C[C@@](O)(C(=O)O)O[C@H]1[C@H](O)[C@H](O)CO (stereo partly specified)", "No"],
  ["CC(c1ncncc1F)[C@](O)(Cn1cncn1)c1ccc(F)cc1F (stereo partly specified)", "No"],
  ["CCN1CCN(C(=O)NC(C(=O)NC2C(=O)N3C(C(=O)O)=C(CSc4nnnn4C)CSC23)c2ccc(O)cc2)C(=O)C1=O (stereo unspecified)", "No"],
  ["NC[C@@H]1O[C@H](OC2[C@@H](CO)O[C@@H](OC3[C@H](O)[C@H](N)C[C@H](N)[C@H]3OC3O[C@H](CO)[C@@H](O)[C@H](O)[C@@H]3N)[C@H]2O)C(N)[C@H](O)[C@@H]1O (stereo partly specified)", "No"],
  ["CC(=O)N1CC(O)CC1C(=O)O (stereo unspecified)", "No"],
  ["CCCC[C@H]1C(=O)N(c2ccccc2)N(c2ccc(O)cc2)C1=O", "No"],
  ["C=CC1CN2CCC1CC2[C@@H](O)c1ccnc2ccc(OC)cc12 (stereo partly specified)", "Yes"]
]}

In: Per the assay record, what outcome was assigned to "CO/N=C(/C(=O)N[C@@H]1C(=O)N2C(C(=O)O)=C(CSc3nnnn3C)CS[C@H]12)c1csc(N)n1" ?
Out: No

----------
The following molecules are shown together with reported activity, negative = inhibition values.
Assay: Stat Signaling Pathway (AID 446);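 also: ME-180 cervical cancer cells given 40 pM IL-6 alongside compound; SIE-controlled beta-lactamase reporter measured as 460/530 nm FRET emission ratio; % is scaled to controls: 0 for no effect and ±100 for the full control effect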
Settings: ME-180 (cervical carcinoma) SIE beta-lactamase reporter, IL-6 stimulated, 5 h; at 17.2 µM (top of the series) unless noted
Inconclusive results are not listed. Calls of active or inactive are those of the source. The call rests on the fitted dose curve; in most records, active means well fitted curve in either direction with a large enough effect (not every such curve was filed as active); inconclusive means small, poorly fitted or top-dose-only effect, or another doubt; inactive means flat fitted curve, though single readings scatter.

{"columns": ["Molecule", "Val"],
 "data": [
  ["O=C(Nc1ccc2c(c1)OCO2)c1cncc(Br)c1", "-14.9% (inactive)"]
]}

In: Could you share which activity, negative = inhibition value was measured for "C=CCn1c(=N)c(C(=O)OCC)cc2c(=O)n3cccc(C)c3nc21" ?
Out: 28.1% (inactive)

In: Now give it for CCCCNC(=O)C(C#N)c1nc2ccccc2nc1N1CCN(c2ccccc2F)CC1 (configuration not stated) too.
Out: 0.859% (inactive)

In: Now give it for "Cc1cccc(-c2nc(C#N)c(NC3CCCCC3)o2)c1" too.
Out: -7.27% (inactive)

In: Now give it for "Cc1ccc2[nH]c3c(c2c1)CN(C(=O)CN1CCCc2ccccc21)CC3" too.
Out: -11.3% (inactive)

In: Now give it for "CCOCCN(C(=O)COC)c1cccc(OC)c1" too.
Out: 6.59% (inactive)

In: Now give it for "COc1ccc2c(c1)CN([C@H](C)[C@@H]1CC[C@@H]3[C@H]4CC[C@H]5C[C@@H](O)CC[C@@]5(C)[C@H]4CC[C@]31C)CO2" too.
Out: -2.48% [at 7.69 µM] (inactive)

Data credit: PubChem BioAssay (NCATS)
